Property: pIC50; scope: individual molecules
target: active p38 alpha enzyme (Upstate Biotechnology) (Homo sapiens); construct: purchased Upstate Biotechnology; test: p38α biochemical assay (ATP turnover, luminescent detection, Cambrex PKlight); conditions: p38α kinase; Table 1 Biological Activity
pIC50: −log10 of the molar value.

Recorded pIC50, per entry:
* CC(C)NC(=O)c1csc(-c2oc(CN[C@H](CO)Cc3ccccc3)nc2-c2ccc(F)cc2)n1 | < 6.00
* CC(C)NC(=O)c1csc(-c2oc(CNc3ccc(F)cc3C(F)(F)F)nc2-c2ccc(F)cc2)n1 | < 6.00

Tested system active p38 alpha enzyme (Upstate Biotechnology) (Homo sapiens); pIC50 recorded for `CC(C)NC(=O)c1csc(-c2c(-c3ccc(F)cc3)n[nH]c2C2CCN(C(=O)c3cc(C(C)C)cc(C(C)C)c3O)CC2)n1` was < 6.00

Tested system active p38 alpha enzyme (Upstate Biotechnology) (Homo sapiens); pIC50 recorded for `Cc1nc(-c2ccc(F)cc2)c(-c2nc(C(=O)NCc3cccc(F)c3)cs2)s1` was ≥ 6.00

Tested system active p38 alpha enzyme (Upstate Biotechnology) (Homo sapiens); pIC50 recorded for `CC(C)NC(=O)c1csc(-c2c(-c3ccc(F)cc3)noc2CNc2ccccc2COc2ccccc2)n1` was < 6.00

Tested system active p38 alpha enzyme (Upstate Biotechnology) (Homo sapiens); pIC50 recorded for `Cc1cc(C)cc(NC(=O)c2csc(-c3sc(C)nc3-c3ccc(F)cc3)n2)c1` was < 6.00

Tested system active p38 alpha enzyme (Upstate Biotechnology) (Homo sapiens); pIC50 recorded for `COc1ccc(NC(=O)c2csc(-c3sc(C)nc3-c3ccc(F)cc3)n2)c(C)c1` was ≥ 6.00

Tested system active p38 alpha enzyme (Upstate Biotechnology) (Homo sapiens); pIC50 recorded for `CC1CCN(Cc2onc(-c3ccc(F)cc3)c2-c2nc(C(=O)NC(C)C)cs2)CC1` was < 6.00

Tested system active p38 alpha enzyme (Upstate Biotechnology) (Homo sapiens); pIC50 recorded for `CC(C)NC(=O)c1csc(-c2c(-c3ccc(F)cc3)noc2CNCCCCO)n1` was < 6.00

Tested system active p38 alpha enzyme (Upstate Biotechnology) (Homo sapiens); pIC50 recorded for `CCOc1ccc(OCC)c(NCc2nc(-c3ccc(F)cc3)c(-c3nc(C(=O)NC(C)C)cs3)o2)c1` was < 6.00

====

molecular target: active p38 alpha enzyme (Upstate Biotechnology) (Homo sapiens, UniProt Q16539); construct: purchased Upstate Biotechnology; assay: p38α biochemical assay (ATP turnover, luminescent detection, Cambrex PKlight); details: p38α biochemical assay, Table 1 Biological Activity
Sequence (Q16539 whole entry): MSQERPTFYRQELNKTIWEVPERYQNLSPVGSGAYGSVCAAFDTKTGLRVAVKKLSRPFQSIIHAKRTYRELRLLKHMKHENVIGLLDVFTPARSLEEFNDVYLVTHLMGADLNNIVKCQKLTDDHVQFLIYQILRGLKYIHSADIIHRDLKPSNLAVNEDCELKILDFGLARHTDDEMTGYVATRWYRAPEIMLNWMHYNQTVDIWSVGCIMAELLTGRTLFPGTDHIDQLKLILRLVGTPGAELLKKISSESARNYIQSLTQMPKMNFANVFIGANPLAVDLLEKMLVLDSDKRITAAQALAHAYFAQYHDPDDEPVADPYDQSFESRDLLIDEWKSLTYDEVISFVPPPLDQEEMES
pIC50: −log10 of the molar value.
measuredProperty: pIC50

Recorded pIC50, per entry:
- CC(C)NC(=O)c1csc(-c2oc(CNC(=O)Cc3ccccc3O)nc2-c2ccc(F)cc2)n1 [Example 143]: ≥ 6.00
- Cc1cc(C(=O)N2CCN(Cc3nc(-c4ccc(F)cc4)c(-c4nc(C(=O)NC(C)C)cs4)o3)CC2)ccc1Br [Example 529]: < 6.00
- Cc1onc(-c2cccc(C(F)(F)F)c2)c1-c1ccn(C(=O)NC(C)C)n1 [Example 19]: < 6.00

For CC(C)NC(=O)c1csc(-c2c(-c3ccc(F)cc3)noc2CNC(=O)c2ccccc2Cl)n1 [Example 626] the compound record lists pIC50 as < 6.00

For CC(C)NC(=O)c1csc(-c2c(-c3ccc(F)cc3)noc2CNC(=O)C2CN(C(=O)OC(C)(C)C)CCN2)n1 (centres unmarked) [Example 790] the compound record lists pIC50 as < 6.00
